Tested on: RARb:RXRa (NR concentration 270 nM, RXRa partner concentration 90 nM)
Test: PBM binding z-score (relative to random genomic background probes); higher = stronger binding; sequences stand for … in GC…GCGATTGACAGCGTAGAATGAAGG
Consider the following sequences; for each one, report its PBM binding z-score.

Examples with answers:
- chain sequence: "CACACAGGGTCAGCTAGGCCAGAGTAGGGACGGC"
  tgt: "RARb:RXRa (NR concentration 270 nM, RXRa partner concentration 90 nM)"
  readout value: 4.09
- chain sequence: "GGGACGAGGGCAAAGTTGATAGCATCTGTCGACG"
  tgt: "RARb:RXRa (NR concentration 270 nM, RXRa partner concentration 90 nM)"
  readout value: 2.46
- chain sequence: "CCAGACAGGTGAGACGGTAACTCAGCCTCGATTA"
  tgt: "RARb:RXRa (NR concentration 270 nM, RXRa partner concentration 90 nM)"
  readout value: 0.413
- chain sequence: "TCATATAGGTAAAGGTGTAAGTCGAACGATATGA"
  tgt: "RARb:RXRa (NR concentration 270 nM, RXRa partner concentration 90 nM)"
  readout value: 0.413
- chain sequence: "TAGCCTAGGTTAGATCGGGCCAGTATACGCTATA"
  tgt: "RARb:RXRa (NR concentration 270 nM, RXRa partner concentration 90 nM)"
  readout value: 0.0949

Please examine the following record next.
Noted for `AGAATGAGGTTATACGTAGATCAGGCAAGAAAGT` : its PBM binding z-score reads 1.29

---

System: FXR:RXRa (NR concentration 270 nM, RXRa partner concentration 90 nM)
Test: PBM binding z-score (relative to random genomic background probes); higher = stronger binding; sequences stand for … in GC…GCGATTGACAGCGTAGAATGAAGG
measured quantity: PBM binding z-score
Numbers only.

# annotated cases, reported PBM binding z-score shown
- chain sequence: "GGAACGCGGGCAAAGTTGATAGCATCTGTCGACG"
  readout value: -0.48
- chain sequence: "TCTGCTCGGTCAACGATGGTCAGCTAATCTGCTA"
  readout value: 0.568
- chain sequence: "CCTACTGGGCCATCAGGTCATTGAGATCAACGTT"
  readout value: 1.65

Report PBM binding z-score for every entry below.
1. CCGACTGGGGCATAAGGTTACCATCAGCCAGCCC
2. CCTCGGAGGACAGAGGGTCAGAGCTGTCCGCTTT
3. TCTTGGAGATCAGCAGGTTAAGAAAGCTGGCCAA

result:
1. 0.308
2. 0.828
3. 0.173

---

Test system: RARb homodimer (NR concentration 270 nM)
Test: PBM binding z-score (relative to random genomic background probes); higher = stronger binding; sequences stand for … in GC…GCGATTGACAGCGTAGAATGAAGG
Please provide measured PBM binding z-score for the entries that follow.

Example entries and their recorded answers appear below.
- chain sequence: "ATATGTAGGTTACATCCGGGTCAGTCAGGCTATG"
  measured quantity: "PBM binding z-score"
  readout value: 2.61
- chain sequence: "CAAGACAGGTGAGAAGGTAACTCAGCCTCGATTA"
  measured quantity: "PBM binding z-score"
  readout value: 0.607
- chain sequence: "ACTCGAAGGACAAAGGTCAGAGCTACGCCAGTGA"
  measured quantity: "PBM binding z-score"
  readout value: 4.53
- chain sequence: "TGTAGTTGGTCACGGAGGTCACACACGACGGGTA"
  measured quantity: "PBM binding z-score"
  readout value: 4.39
- chain sequence: "TCATTTAGGTAAACAGGTGAAAGTCCGTAAGTTA"
  measured quantity: "PBM binding z-score"
  readout value: 1.09
- chain sequence: "CGTCACAGTTCAACTAAGGTAACGTAAAGCACGC"
  measured quantity: "PBM binding z-score"
  readout value: 2.56
- chain sequence: "TCGTGTAGGTTAGGGGCATTCAGAATGGCGTCGA"
  measured quantity: "PBM binding z-score"
  readout value: 1.37
- chain sequence: "CCTATCAGTTGACCATAAGGGCAACCGAAGCTCG"
  measured quantity: "PBM binding z-score"
  readout value: 1.93
- chain sequence: "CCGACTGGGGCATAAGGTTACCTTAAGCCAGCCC"
  measured quantity: "PBM binding z-score"
  readout value: 1.66
- chain sequence: "CCTTACGGATCACGAGGTTATAGCACGACGAGCG"
  measured quantity: "PBM binding z-score"
  readout value: 1.15

Quick one: give me PBM binding z-score for each item below, same order please.
1. GCAGACAGGTGAAACGCAGGTAAATCAGGGTGGC
2. CGTCCAAGGTGAAGGTCAGTGAAAGAGACTCGAA

result:
1. 0.00843
2. 3.4
